Below: a set of entries, each annotated with reported Maximum mean fluorescence intensity.
Target: T1, human CD22, full length, on CHO-K1-human CD22 2C4 cells (human, UniProt P20273 20-847)
T1 construct: Full-length human CD22 (NCBI NP_001762.2) stably transfected into CHO-K1
T1 sequence: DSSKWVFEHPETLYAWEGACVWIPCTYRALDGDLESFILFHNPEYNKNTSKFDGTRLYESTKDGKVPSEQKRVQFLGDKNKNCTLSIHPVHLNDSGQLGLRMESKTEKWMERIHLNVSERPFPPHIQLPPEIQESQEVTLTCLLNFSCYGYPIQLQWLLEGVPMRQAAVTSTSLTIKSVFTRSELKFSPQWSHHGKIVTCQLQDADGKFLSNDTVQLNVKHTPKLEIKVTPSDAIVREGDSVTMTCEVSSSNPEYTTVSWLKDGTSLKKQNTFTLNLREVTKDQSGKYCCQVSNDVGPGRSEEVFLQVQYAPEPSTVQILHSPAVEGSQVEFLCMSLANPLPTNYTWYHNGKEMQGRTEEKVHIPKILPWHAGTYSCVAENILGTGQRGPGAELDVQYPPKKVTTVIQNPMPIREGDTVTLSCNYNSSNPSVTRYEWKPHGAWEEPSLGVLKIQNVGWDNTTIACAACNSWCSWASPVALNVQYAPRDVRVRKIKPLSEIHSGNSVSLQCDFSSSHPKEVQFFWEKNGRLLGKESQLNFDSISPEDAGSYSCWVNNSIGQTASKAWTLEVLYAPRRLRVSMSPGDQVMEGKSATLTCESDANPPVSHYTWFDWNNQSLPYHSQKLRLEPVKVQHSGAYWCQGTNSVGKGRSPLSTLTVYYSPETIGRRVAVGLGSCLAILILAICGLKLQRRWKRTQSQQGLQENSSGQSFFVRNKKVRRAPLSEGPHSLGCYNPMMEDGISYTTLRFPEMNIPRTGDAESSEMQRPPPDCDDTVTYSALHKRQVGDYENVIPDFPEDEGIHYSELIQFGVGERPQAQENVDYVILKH
Assay: FACS, CHO-K1-human CD22 2C4 cells

binder	Maximum mean fluorescence intensity
F1.250.16 human-murine chimeric antibody (antibody, human IgG1, kappa, V domains shown, Chimeric, human IgG1 / kappa; VL tied by name) VH: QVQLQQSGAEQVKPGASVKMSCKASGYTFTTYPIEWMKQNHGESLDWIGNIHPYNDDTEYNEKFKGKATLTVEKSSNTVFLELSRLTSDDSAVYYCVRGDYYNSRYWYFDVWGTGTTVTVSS VL: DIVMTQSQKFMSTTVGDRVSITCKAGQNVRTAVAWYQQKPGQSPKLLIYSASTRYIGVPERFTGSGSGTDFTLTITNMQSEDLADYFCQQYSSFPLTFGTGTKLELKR	37400 MFI
F1.267.9 human-murine chimeric antibody (antibody, human IgG1, kappa, V domains shown, Chimeric, human IgG1 / kappa; VL tied by name) VH: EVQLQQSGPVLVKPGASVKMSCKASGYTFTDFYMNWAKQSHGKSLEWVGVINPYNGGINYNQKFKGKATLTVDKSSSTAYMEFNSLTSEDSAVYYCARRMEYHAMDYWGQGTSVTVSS VL: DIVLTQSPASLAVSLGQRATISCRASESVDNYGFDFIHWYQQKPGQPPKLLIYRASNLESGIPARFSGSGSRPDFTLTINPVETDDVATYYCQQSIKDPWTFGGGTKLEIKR	31200 MFI
F1.192.1 human-murine chimeric antibody (antibody, human IgG1, kappa, V domains shown, Chimeric, human IgG1 / kappa) VH: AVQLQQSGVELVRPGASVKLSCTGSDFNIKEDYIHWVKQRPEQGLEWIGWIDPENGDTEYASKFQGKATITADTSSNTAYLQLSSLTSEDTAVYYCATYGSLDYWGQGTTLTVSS VL: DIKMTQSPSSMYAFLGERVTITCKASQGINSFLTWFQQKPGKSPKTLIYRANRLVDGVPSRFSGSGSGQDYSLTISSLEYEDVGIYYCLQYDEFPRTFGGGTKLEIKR	27200 MFI
F1.200.11 human-murine chimeric antibody (antibody, human IgG1, kappa, V domains shown, Chimeric, human IgG1 / kappa) VH: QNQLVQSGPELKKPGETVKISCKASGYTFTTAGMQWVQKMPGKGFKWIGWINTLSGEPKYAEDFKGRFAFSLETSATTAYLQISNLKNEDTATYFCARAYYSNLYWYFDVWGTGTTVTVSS VL: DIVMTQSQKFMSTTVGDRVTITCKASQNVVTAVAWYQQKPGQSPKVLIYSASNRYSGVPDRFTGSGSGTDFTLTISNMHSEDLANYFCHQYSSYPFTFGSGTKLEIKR	23000 MFI
F1.245.2 human-murine chimeric antibody (antibody, human IgG1, kappa, V domains shown, Chimeric, human IgG1 / kappa) VH: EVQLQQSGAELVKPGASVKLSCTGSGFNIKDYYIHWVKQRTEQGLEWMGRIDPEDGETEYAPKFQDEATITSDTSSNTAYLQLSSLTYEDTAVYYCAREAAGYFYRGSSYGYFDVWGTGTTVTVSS VL: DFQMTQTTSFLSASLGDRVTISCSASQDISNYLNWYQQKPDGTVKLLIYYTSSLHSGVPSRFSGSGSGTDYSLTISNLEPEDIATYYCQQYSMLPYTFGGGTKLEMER	43300 MFI
